assay: qHTS drug screen for cell cycle checkpoint inhibitors in PARPi-resistant BRCA-mutant ovarian cancer cell lines. (AID 1963452); conditions: PEO1/OlaR viability, CellTiter-Glo luminescence, 96 h; measured here: PEO1 parental Z-AUC; stronger effect = lower value
Please map values of Z-AUC to classes as shown: lower band (below -0.4), central band (-0.4 to below 0.5), upper band (0.5 or more)

compound	discreteLabel
O=c1c(-c2ccc(O)cc2)coc2c([C@@H]3O[C@H](CO)[C@@H](O)[C@H](O)[C@H]3O)c(O)ccc12	upper band
CN1CCN(C(=O)[C@H]2[C@@H](C(=O)O)[C@H]3CC[C@@H]2O3)CC1	upper band
COC(=O)c1ccc([C@H]2c3[nH]c4ccccc4c3C[C@H](C(=O)OC)N2C(=O)CCl)cc1	central band
Nc1nc(N)c2nc(-c3cccc(Cl)c3)c(N)nc2n1	central band
O=C(NO)c1cnc(N2C[C@H]3C[C@@H]2CN3c2cc(C(F)(F)F)ccn2)nc1	lower band
C=CCN1C[C@H](C(=O)N(CCCN(C)C)C(=O)NCC)CC2c3cccc4[nH]cc(c34)C[C@H]21 (stereo partly specified)	central band
O=C1Cc2cc(C(=O)NC3C[C@H]4CC[C@@H](C3)N4S(=O)(=O)CC3CCN(CCCC(F)(F)F)CC3)c(Cl)cc2N1 (stereo partly specified)	lower band
O=C(CCCc1ccc2cccnc2n1)NCc1cc(-c2ccc(F)c(C(F)(F)F)c2)no1	lower band
C[C@]12CCC3[C@@H](CC[C@H]4NC(=O)C=C[C@]34C)[C@@H]1CC[C@@H]2C(=O)Nc1cc(C(F)(F)F)ccc1C(F)(F)F (stereo partly specified)	lower band
COc1ccc(COc2ccc(Cc3cnc(N)nc3N)cc2OC)cc1	upper band
CC(C)(O)[C@H]1CC[C@@](C)([C@H]2[C@@H](O)C[C@@]3(C)[C@@H]4C[C@H](O[C@@H]5O[C@H](CO)[C@@H](O)[C@H](O)[C@H]5O)[C@H]5C(C)(C)[C@@H](O[C@@H]6OC[C@@H](O)[C@H](O)[C@H]6O)CC[C@@]56C[C@@]46CC[C@]23C)O1	upper band
C[C@@H](Oc1ccc2[nH]nc(/C=C/c3cnn(CCO)c3)c2c1)c1c(Cl)cncc1Cl	lower band
CNC(=O)Cn1cc(-c2ccc3c(c2)C(F)CC32NC(=O)N(CC(=O)N(Cc3ccc(F)cc3)C(C)C(F)(F)F)C2=O)cn1 (stereo unspecified)	upper band
COc1cc([C@@H]2c3cc4c(cc3[C@@H](O[C@@H]3O[C@@H]5CO[C@@H](c6cccs6)O[C@H]5[C@H](O)[C@H]3O)[C@H]3COC(=O)[C@H]23)OCO4)cc(OC)c1O	lower band

----------
assay: SW1088 Cancer Cell Toxicity qHTS against the NCATS CANVASS Library (AID 1347350); conditions: SW1088 viability, CellTiter-Glo luminescence, 72 h; series mostly up to 38.3 µM; further: nearly all actives have a fitted effect of over 75% in size
Inconclusive results are not listed. The source made the active and inactive calls. Calls come from the whole dose curve; as a rule, active = well fitted cell-killing curve with a large enough effect; inconclusive = small, poorly fitted or top-dose-only effect; inactive = flat fitted curve, though single readings scatter.
Outcomes: T (active), F (inactive)

compound	discreteLabel
COc1cc2ccc(=O)oc2c(O)c1O[C@@H]1O[C@H](CO)[C@@H](O)[C@H](O)[C@H]1O	F
C/C(=C\[C@H](C)C(=O)/C=C/CC1CC(=O)NC(=O)C1)[C@@H]1OC(=O)CCCC/C=C/[C@H](O)[C@@H](O)[C@@H]1C	F
C=C1C(=O)O[C@H]2[C@H]1CCC(C)=C1CC[C@@](C)(O)[C@@H]12	T
C[C@H]1C=C[C@H]2CCCC[C@@H]2[C@H]1C(=O)[C@H]1CC2=C(C(=O)O)CCN2C1=O	T
O=c1cc(-c2ccc(O)cc2)oc2cc(O)c([C@@H]3OC(CO)[C@H](O)[C@@H](O)[C@H]3O)c(O)c12 (some centres not stated)	F
CO[C@@H]1[C@H](O)[C@@H](C)O[C@@H](OC[C@@H]2C(C)OC(=O)/C=C/[C@H](C)C(O[C@@H]3O[C@H](C)CC4(OC(=O)O[C@@H]4C)C3O)[C@@H](C)CC(C)C(=O)/C=C/[C@H]3OC23)[C@@H]1OC (some centres not stated)	F
C/C1=C/[C@@H](C)[C@H](O)C/C=C/CC/C=C/C(=O)O[C@@H]1[C@H](C)C(=O)CCCC1CC(=O)NC(=O)C1	F
